biological target: UniProt:P28564; test: Inhibitory activity against 5-hydroxytryptamine 1B receptor of rat striatal membrane homogenate using [3H]5-HT as the radioligand.
Sequence (P28564 whole entry): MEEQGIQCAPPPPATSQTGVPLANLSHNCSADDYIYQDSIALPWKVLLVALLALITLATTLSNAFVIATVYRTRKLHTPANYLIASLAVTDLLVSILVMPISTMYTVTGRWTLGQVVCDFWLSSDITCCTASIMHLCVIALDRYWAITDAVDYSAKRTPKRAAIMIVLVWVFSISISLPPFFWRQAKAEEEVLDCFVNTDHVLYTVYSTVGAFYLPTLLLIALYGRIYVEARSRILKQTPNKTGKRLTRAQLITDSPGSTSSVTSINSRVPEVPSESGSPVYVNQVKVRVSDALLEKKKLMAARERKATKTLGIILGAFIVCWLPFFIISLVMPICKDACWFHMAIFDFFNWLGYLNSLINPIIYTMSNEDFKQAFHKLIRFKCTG
pKi: −log10 of the molar value.
In this section, each of the compounds is paired with its reported pKi.

COMPOUND: CCCN(CCC)CC(O)COc1cccc2ccccc12 (configuration not stated)
INEQUALITY SYMBOL: =
pKi: 5.10
--
COMPOUND: CN(C)CCCCc1ccccc1
INEQUALITY SYMBOL: <
pKi: 5.00

----------
Target: UniProt:P19327
Sequence (P19327 whole entry): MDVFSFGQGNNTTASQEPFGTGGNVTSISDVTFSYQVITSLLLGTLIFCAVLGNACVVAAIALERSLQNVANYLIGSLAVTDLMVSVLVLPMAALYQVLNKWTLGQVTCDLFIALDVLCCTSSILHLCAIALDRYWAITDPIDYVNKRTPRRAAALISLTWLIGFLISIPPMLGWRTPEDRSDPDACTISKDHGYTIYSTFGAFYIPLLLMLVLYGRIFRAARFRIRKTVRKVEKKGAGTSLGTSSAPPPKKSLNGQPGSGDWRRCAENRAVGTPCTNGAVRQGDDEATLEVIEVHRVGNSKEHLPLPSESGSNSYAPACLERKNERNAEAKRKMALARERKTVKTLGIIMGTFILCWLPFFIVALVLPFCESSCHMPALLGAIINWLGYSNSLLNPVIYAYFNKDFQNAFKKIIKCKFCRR
Test: Inhibitory activity against 5-hydroxytryptamine 1A receptor of rat hippocampal tissue using [3H]OH-DPAT as radioligand.
VALUE KIND: log10 of Ki (log10 of the value in nM)

TEST SMILES: CCCN(C)CCOc1cccc2ccccc12
NUMERIC RESULT: 1.65

TEST SMILES: CN(C)CCOc1cccc2ccccc12
NUMERIC RESULT: 1.90

TEST SMILES: NCCOc1cccc2ccccc12
NUMERIC RESULT: 1.78

TEST SMILES: CCCCN(CCCC)CCOc1cccc2ccccc12
NUMERIC RESULT: 2.18

TEST SMILES: CN(C)CCCOc1ccccc1
NUMERIC RESULT: 3.69

TEST SMILES: CN(C)CCCCOc1cccc2ccccc12
NUMERIC RESULT: 2.60

TEST SMILES: CCCN(CCC)CCCOc1ccccc1
NUMERIC RESULT: 3.44

TEST SMILES: CN(C)CCCOc1ccccc1O
NUMERIC RESULT: 3.69

----------
In this section, each of the compounds is paired with its reported pKi.
target: 5-hydroxytryptamine receptor 1A (Rattus norvegicus); experiment: Inhibitory activity against 5-hydroxytryptamine 1A receptor of rat hippocampal tissue using [3H]OH-DPAT as radioligand.
pKi: −log10 of the molar value.
VALUE KIND: pKi

TEST SMILES: CCCCN(CCCC)CCCOc1cccc2ccccc12
VALUE KIND: pKi
INEQUALITY SYMBOL: =
NUMERIC RESULT: 6.65
--
TEST SMILES: CN(C)CCCOc1cccc2ccccc12
VALUE KIND: pKi
INEQUALITY SYMBOL: =
NUMERIC RESULT: 6.46
--
TEST SMILES: COc1ccccc1OCCCN(C)C
VALUE KIND: pKi
INEQUALITY SYMBOL: =
NUMERIC RESULT: 5.52
--
TEST SMILES: CCCN(CCC)CCCOc1cccc2ccccc12
VALUE KIND: pKi
INEQUALITY SYMBOL: =
NUMERIC RESULT: 6.35
--
TEST SMILES: CN(CCOc1cccc2ccccc12)Cc1ccccc1
VALUE KIND: pKi
INEQUALITY SYMBOL: =
NUMERIC RESULT: 7.02
--
TEST SMILES: CN(C)CCCNc1ccccc1
VALUE KIND: pKi
INEQUALITY SYMBOL: <
NUMERIC RESULT: 4.60
--
TEST SMILES: CCCCN(CC)CCOc1cccc2ccccc12
VALUE KIND: pKi
INEQUALITY SYMBOL: =
NUMERIC RESULT: 7.41
--
TEST SMILES: CNCCCOc1ccccc1
VALUE KIND: pKi
INEQUALITY SYMBOL: =
NUMERIC RESULT: 5.48

Ref: ChEMBL document CHEMBL1124632
